// data source = BindingDB's records for doi:10.1021/jm901214q

# system.tested: Cannabinoid receptor 2 (Homo sapiens, UniProt P34972)
# Sequence (P34972 whole entry): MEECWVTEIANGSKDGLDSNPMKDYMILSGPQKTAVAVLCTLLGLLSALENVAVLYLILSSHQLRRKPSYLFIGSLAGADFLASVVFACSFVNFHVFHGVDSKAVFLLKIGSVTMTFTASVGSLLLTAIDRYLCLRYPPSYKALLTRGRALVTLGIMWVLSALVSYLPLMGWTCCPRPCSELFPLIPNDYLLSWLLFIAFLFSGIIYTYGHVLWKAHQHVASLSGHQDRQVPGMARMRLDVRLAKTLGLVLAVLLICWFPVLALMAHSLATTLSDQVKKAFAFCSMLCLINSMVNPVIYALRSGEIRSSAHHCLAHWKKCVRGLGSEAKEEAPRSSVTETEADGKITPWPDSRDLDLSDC
# test.name: Agonist activity at human recombinant CB2 receptor expressed in HEK293 cells coexpressing Galphaq/o5 assessed as calcium mobilization by FLIPR assay
assay.endpoint: EC50

Problem: Returns the measured EC50 for the input molecule. Input: CN1CCCCC1Cn1cc(C(=O)c2cc([N+](=O)[O-])ccc2I)c2ccccc21 (stereo unspecified)
Result: > 10 µM
